Record: IC50 reported on VEGFR-2 (Homo sapiens, UniProt P35968).
Sequence (P35968 20-1356): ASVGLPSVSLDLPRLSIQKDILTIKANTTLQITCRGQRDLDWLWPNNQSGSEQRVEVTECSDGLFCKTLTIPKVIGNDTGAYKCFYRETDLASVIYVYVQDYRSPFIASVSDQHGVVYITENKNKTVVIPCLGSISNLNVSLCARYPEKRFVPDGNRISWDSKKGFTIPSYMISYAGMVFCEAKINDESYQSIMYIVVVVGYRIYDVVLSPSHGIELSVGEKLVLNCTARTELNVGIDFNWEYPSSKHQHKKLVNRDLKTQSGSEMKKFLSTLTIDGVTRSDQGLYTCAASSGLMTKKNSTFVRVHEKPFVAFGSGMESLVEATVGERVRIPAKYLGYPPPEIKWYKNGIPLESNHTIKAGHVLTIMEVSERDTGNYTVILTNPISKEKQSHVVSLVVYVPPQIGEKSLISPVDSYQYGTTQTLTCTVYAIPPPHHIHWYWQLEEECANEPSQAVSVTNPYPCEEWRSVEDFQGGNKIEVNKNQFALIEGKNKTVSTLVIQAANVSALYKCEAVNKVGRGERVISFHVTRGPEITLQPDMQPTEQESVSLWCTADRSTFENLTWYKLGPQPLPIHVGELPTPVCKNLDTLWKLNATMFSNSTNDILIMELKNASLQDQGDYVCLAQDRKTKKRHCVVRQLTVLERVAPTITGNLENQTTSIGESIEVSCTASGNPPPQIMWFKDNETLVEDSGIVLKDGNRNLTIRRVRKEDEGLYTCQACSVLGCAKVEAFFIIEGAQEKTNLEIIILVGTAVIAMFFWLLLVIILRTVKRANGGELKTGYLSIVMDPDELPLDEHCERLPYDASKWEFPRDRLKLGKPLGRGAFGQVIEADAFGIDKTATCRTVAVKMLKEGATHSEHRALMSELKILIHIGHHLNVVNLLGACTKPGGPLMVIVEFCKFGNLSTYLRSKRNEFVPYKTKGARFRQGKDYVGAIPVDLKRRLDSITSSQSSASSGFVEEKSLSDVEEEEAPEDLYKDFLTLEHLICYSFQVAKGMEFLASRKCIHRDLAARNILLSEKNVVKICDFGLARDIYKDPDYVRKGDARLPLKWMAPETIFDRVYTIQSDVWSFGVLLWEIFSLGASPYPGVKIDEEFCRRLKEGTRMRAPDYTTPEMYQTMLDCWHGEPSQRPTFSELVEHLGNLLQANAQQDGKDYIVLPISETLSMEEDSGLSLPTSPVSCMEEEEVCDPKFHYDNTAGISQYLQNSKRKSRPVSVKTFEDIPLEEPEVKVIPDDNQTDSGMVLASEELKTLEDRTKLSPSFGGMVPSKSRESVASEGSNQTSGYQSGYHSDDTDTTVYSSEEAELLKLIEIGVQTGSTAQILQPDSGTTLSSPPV
property-label: IC50 (nM)

- input-smiles: "CC(C)c1ccc(NC(=O)CN2C(=O)SC(=Cc3ccco3)C2=O)cc1"
  measurement-unit: "nM"
  IC50: 263
- input-smiles: "Cc1ccc(NC(=O)CN2C(=O)SC(=Cc3ccco3)C2=O)cc1"
  measurement-unit: "nM"
  IC50: 276
- input-smiles: "COc1ccc(NC(=O)CN2C(=O)SC(=Cc3ccco3)C2=O)cc1"
  measurement-unit: "nM"
  IC50: 247
- input-smiles: "O=C(CN1C(=O)SC(=Cc2cccs2)C1=O)Nc1ccc(Br)cc1"
  measurement-unit: "nM"
  IC50: 255

###

# tested-target: EGFR^T790M (Homo sapiens, UniProt P00533, T790M)
# Sequence (P00533 25-1210 T790M): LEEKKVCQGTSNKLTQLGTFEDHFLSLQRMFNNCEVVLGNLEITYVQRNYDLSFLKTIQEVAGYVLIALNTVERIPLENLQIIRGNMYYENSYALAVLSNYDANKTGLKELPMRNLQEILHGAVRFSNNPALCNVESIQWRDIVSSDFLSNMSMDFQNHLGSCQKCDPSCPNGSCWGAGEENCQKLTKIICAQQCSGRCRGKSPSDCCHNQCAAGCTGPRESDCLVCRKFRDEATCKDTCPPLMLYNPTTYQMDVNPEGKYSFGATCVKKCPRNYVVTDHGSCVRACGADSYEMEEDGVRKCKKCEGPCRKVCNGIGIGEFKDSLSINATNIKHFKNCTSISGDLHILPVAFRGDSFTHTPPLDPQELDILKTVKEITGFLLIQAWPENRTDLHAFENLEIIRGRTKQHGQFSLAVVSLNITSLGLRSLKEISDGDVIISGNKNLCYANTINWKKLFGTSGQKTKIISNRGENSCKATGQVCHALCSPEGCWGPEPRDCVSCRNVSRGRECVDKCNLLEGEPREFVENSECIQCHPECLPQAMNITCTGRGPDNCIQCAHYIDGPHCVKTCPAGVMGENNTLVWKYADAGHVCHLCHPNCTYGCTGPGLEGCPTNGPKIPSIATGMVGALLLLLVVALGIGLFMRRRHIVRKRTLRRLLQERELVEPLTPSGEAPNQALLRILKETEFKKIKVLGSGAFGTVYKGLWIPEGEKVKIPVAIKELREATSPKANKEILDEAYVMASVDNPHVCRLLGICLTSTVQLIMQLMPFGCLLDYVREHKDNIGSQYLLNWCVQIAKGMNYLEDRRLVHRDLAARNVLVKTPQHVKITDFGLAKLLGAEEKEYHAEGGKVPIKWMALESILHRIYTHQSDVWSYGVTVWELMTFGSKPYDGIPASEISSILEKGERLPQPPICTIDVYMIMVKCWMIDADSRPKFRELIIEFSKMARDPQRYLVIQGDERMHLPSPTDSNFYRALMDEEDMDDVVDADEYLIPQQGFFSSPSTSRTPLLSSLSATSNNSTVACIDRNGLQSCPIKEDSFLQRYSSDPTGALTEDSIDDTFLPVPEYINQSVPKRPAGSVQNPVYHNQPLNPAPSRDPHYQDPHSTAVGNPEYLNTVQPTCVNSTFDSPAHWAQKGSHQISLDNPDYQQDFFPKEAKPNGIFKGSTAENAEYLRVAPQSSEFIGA
# experimental-details: EGFR^T790M kinase inhibitory assay
property-label: IC50 (nM)

Study these solved cases before continuing.
- input-smiles: "COc1ccc(NC(=O)CN2C(=O)SC(=Cc3cccs3)C2=O)cc1"
  tested-target: "EGFR^T790M (Homo sapiens, UniProt P00533, T790M)"
  IC50 / nM: 360
- input-smiles: "O=C(CN1C(=O)SC(=Cc2cccs2)C1=O)Nc1ccc(Br)cc1"
  tested-target: "EGFR^T790M (Homo sapiens, UniProt P00533, T790M)"
  IC50 / nM: 420
- input-smiles: "CC(C)c1ccc(NC(=O)CN2C(=O)SC(=Cc3ccco3)C2=O)cc1"
  tested-target: "EGFR^T790M (Homo sapiens, UniProt P00533, T790M)"
  IC50 / nM: 410

A = COc1ccc(NC(=O)CN2C(=O)SC(=Cc3ccco3)C2=O)cc1
B = O=C(CN1C(=O)SC(=Cc2cccs2)C1=O)Nc1ccc(C(=O)O)cc1
Response body: label of entry with the larger IC50; valid values A , B . State the label of the item chosen. A
